System: MDA-MB-468
ASSAY EXPLANATION: normalised response (% of control), CellTiter-Glo; higher = more viable cells (100 = DMSO, 0 = benzethonium chloride kill control)
CONDITIONS: incubation time: 72 h
Listed here: items and their measured normalised response.

COMPOUND: Cc1sc2c(c1C)C(c1ccc(Cl)cc1)=N[C@@H](CC(=O)OC(C)(C)C)c1nnc(C)n1-2 [(+)JQ1] (10 nM)
VALUE UNITS: %
normalised response: 98.3
--
COMPOUND: CC1=C2C[C@H]3[C@@H](CC=C4C[C@@H](O)CC[C@@]43C)[C@@H]2CC[C@]12O[C@@H]1C[C@H](C)CN[C@H]1[C@H]2C [Cyclopamine] (10 nM)
VALUE UNITS: %
normalised response: 110
--
COMPOUND: Nc1nc2[nH]cnc2c(=S)[nH]1 [Thioguanine] (1000 nM)
VALUE UNITS: %
normalised response: 95.7
--
COMPOUND: Cn1cc(C2=Nc3cc(NC(=O)C(N)C4CCCCC4)cc4c3C2=CNNC4=O)cn1 (centres undefined) (10 nM)
VALUE UNITS: %
normalised response: 90.6
--
COMPOUND: C[C@]12CC[C@@H]3c4ccc(OC(=O)N(CCCl)CCCl)cc4CC[C@H]3[C@@H]1CC[C@@H]2O [Estramustine] (1 nM)
VALUE UNITS: %
normalised response: 88.2
--
COMPOUND: COc1cc(F)c(F)c(Nc2ccc(I)cc2F)c1NS(=O)(=O)C1(C[C@H](O)CO)CC1 [Refametinib] (1 nM)
VALUE UNITS: %
normalised response: 92.7
--
COMPOUND: CC1(C)CCC(CN2CCN(c3ccc(C(=O)NS(=O)(=O)c4ccc(NCC5CCOCC5)c([N+](=O)[O-])c4)c(Oc4cnc5[nH]ccc5c4)c3)CC2)=C(c2ccc(Cl)cc2)C1 [ABT-199] (1000 nM)
VALUE UNITS: %
normalised response: 93.6
--
COMPOUND: Oc1ncnc2[nH]ncc12 [Allopurinol] (1 nM)
VALUE UNITS: %
normalised response: 109
--
COMPOUND: CC1(C)CCC(CN2CCN(c3ccc(C(=O)NS(=O)(=O)c4ccc(NCC5CCOCC5)c([N+](=O)[O-])c4)c(Oc4cnc5[nH]ccc5c4)c3)CC2)=C(c2ccc(Cl)cc2)C1 [ABT-199] (10 nM)
VALUE UNITS: %
normalised response: 118
--
COMPOUND: Nc1nc2[nH]cnc2c(=S)[nH]1 [Thioguanine] (10 nM)
VALUE UNITS: %
normalised response: 99.5
--
COMPOUND: COc1cc2c(cc1O)CC[C@@H]1[C@@H]2CC[C@]2(C)[C@@H](O)CC[C@@H]12 [2-methoxyestradiol] (1000 nM)
VALUE UNITS: %
normalised response: 95.1
--
COMPOUND: Oc1ncnc2[nH]ncc12 [Allopurinol] (1000 nM)
VALUE UNITS: %
normalised response: 106
--
COMPOUND: O=NN(CCCl)C(=O)NCCCl [Carmustine] (10 nM)
VALUE UNITS: %
normalised response: 102
--
COMPOUND: CC1(C)CNc2cc(NC(=O)c3cccnc3NCc3ccncc3)ccc21 [Motesanib] (10 nM)
VALUE UNITS: %
normalised response: 96.8

Where do the numbers come from? From the supplement of paper PMC4862054.
